# Test system: MALME-3M melanoma
# assay name: NCI tumour cell line growth inhibition, 48 h
# TGI annotations
observable: TGI (µM)

> print(dat)
                                   molecule  unit.abbrev  qualifier  test.value
1    O=C1C=CC(=O)N1c1cccc(N2C(=O)C=CC2=O)c1           µM          =        6.94
2  COc1cc(C(=O)CC2OC(=O)C(Cl)=C2Cl)ccc1Cl (stereo not drawn)           µM          >         100
3          C/C(=N\NC(=S)SCc1ccccc1)c1ccccn1           µM          =         7.4

----------
# Tested on: SK-MEL-5 melanoma
# assay name: NCI tumour cell line growth inhibition, 48 h
observable: TGI

> print(dat)
                                    compound  target.under.test  observable  test.value
 1  O=C1OC(=O)C2CCCC3CCCC1C32 (stereo unspecified)  SK-MEL-5 melanoma         TGI    > 100 µM
 2  O=C(N/N=C1\C(=O)N(c2nccs2)C(=O)C(=O)C1c1nc2ccccc2s1)c1ccccc1O (stereo unspecified)  SK-MEL-5 melanoma         TGI    > 100 µM
 3  COc1cc(C(=O)CC2OC(=O)C(Cl)=C2Cl)ccc1Cl (stereo unspecified)  SK-MEL-5 melanoma         TGI    > 100 µM
 4    C/C(O)=C(\C#N)C(=O)Nc1ccc(C(F)(F)F)cc1  SK-MEL-5 melanoma         TGI    > 100 µM
 5  CO/N=C(\COc1ccc2oc(-c3ccccc3)cc(=O)c2c1)c1ccc(OC)cc1  SK-MEL-5 melanoma         TGI     46.7 µM
 6                    O=C1C2CCN(CC2)C1(CO)CO  SK-MEL-5 melanoma         TGI   > 73.3 µM
 7  O=C(NO)[C@@H](Cc1ccccc1)NS(=O)(=O)c1ccc(-c2ccccc2)cc1  SK-MEL-5 melanoma         TGI     > 25 µM
 8  COC(=O)C1=C(C)NC(C)=C(C(=O)OC)C1c1ccc(N=O)cc1  SK-MEL-5 melanoma         TGI     30.9 µM
 9  [N-]=[N+]=NCCCn1c2c(c3ccc([N+](=O)[O-])cc3c1=O)C(=O)c1cc(F)ccc1-2  SK-MEL-5 melanoma         TGI     3.16 µM
10  CCc1ccc(C(=Nc2ccc(N(C)C(=O)CN3CCN(C)CC3)cc2)c2c(O)[nH]c3ccc(C(=O)OC)cc23)cc1  SK-MEL-5 melanoma         TGI     2.47 µM
11  C#Cc1cc(Br)c(OC(=O)C(C)(C)C)c(-c2cc(C#C)cc(Br)c2OC(=O)C(C)(C)C)c1  SK-MEL-5 melanoma         TGI    > 100 µM
12  Cc1ccc(C(=O)/C=C/c2cccc([N+](=O)[O-])c2)cc1  SK-MEL-5 melanoma         TGI    > 100 µM
13  O=C(/C=C/C12c3ccccc3C(c3ccccc31)C1C(=O)NC(=O)C12)c1ccc(F)cc1 (stereo unspecified)  SK-MEL-5 melanoma         TGI     3.16 µM
14         CN(C)CCNc1c2ccccc2nc2oc3ccccc3c12  SK-MEL-5 melanoma         TGI     20.5 µM
15  CC(CN(C)C)Oc1ccccc1NC1=C(Cl)C(=O)C(Nc2ccccc2OC(C)CN(C)C)=C(Cl)C1=O (stereo unspecified)  SK-MEL-5 melanoma         TGI     2.94 µM
16  CC1(C)NCCC[C@]2(C)[C@H]3CC[C@@H]4[C@H]5[C@H](C(=O)/C=C/c6ccccn6)CC[C@]5(CO)CC[C@@]4(C)[C@]3(C)CC[C@@H]12  SK-MEL-5 melanoma         TGI     4.07 µM
